PROTOCOL: Growth inhibition of human UO31 cells at 10 uM after 48 hrs
Format: functional
PARTICULARS: UO-31, 48 h, read-out: GI
The entries below are paired with their reported inhibition of growth at 10 µM.
Reply numerically in %, unit not repeated.

Return inhibition of growth at 10 µM (reported value) for this compound: Cc1ccc2nc(Sc3sc(N)nc3C)n(Cc3ccccc3)c(=O)c2c1
35.5

Supply inhibition of growth at 10 µM value. Item: Cc1ccc2nc(Sc3sc(N)nc3C)n(-c3ccc(Cl)cc3)c(=O)c2c1
46

Input COc1ccc(-n2c(Sc3nnc(N)s3)nc3ccc(Cl)cc3c2=O)cc1 , output reported inhibition of growth at 10 µM.
21.1
